Origin of values: paper PMC9352680

Biological target: T1, PUF4 RNA-binding domain (Saccharomyces cerevisiae, UniProt P25339 537-888)
T1 sequence: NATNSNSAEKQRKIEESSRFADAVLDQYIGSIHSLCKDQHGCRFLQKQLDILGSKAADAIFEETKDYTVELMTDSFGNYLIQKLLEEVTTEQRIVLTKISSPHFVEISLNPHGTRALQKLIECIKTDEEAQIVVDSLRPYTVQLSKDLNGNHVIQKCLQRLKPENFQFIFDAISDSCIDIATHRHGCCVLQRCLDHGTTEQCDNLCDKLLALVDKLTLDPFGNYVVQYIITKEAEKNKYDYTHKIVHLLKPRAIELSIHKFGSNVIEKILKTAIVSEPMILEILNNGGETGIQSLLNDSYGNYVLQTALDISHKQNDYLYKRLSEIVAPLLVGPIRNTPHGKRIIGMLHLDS
Experiment: Mg; RNA-MaP; 20 mM Na-HEPES pH 7.4, 30 mM KOAc, 0.75 mM MgCl2, 0.1% Tween-20, 5% glycerol, 0.1 mg/mL BSA, 2 mM DTT; 25 C; 0.0125-409.6 nM protein
Settings: tags: N-His6-TEV cleaved; C-SNAP kept, Cy3B-labelled; label: tethered on chip by stalled RNA polymerase
Property name: pKd
One number for each entry, as −log10 of the molar value.

# Binder, pKd
rows = [
    ("Id_ii_S2_P3E.2_K3.1_C3.2_H3.1_A3.1_F3.1_T3.2_[T9A] (ssRNA) RNA: UUUGAUUAAUAUGAUAUCGUUCUUUCUCUUGUAUAUAAAUUCUUUCUCGAUAUCAUAUUAAUCUUU", 8.56),
]

Could I get pKd for every one of these entries?
1. Id_ii_S4_P3E.4_K3.3_C3.2_[C-2G]_[T-1C]_H3.3_A3.1_F3.1_T3.2_[T9C] (ssRNA) RNA: UUUGACAACUGAUCGUUCUUUCUGCACACUAUACAUUCUUUCUCGAUCAGUUGUCUUU
2. UCUCUUUAUGUAUAUUAGCUCUCUU (ssRNA) [Id_ii_S1_P4E.2_K4.1_C4.2_[C-2T]_[T-1A]_H4.1_A4.1_F4.1_T4.2_[T11C]]
3. Ib_S2_P4E.1_K4.1_C4.1_H4.1_[T1G]_[T3C]_A4.1_F4.1_T4.1 (ssRNA) RNA: UUUGAUUAAUAUGAUAUCGUUCUUUCUGGCAUAUUAUUCUUUCUCGAUAUCAUAUUAAUCUUU
4. UCUCUUUAUAUUAUUUUCUCUU (ssRNA) [Ib_S1_P5E.1_K5.1_C5.1_H5.1_[G2A]_A5.1_F5.1_[A10T]_T5.1]
5. Ie_S2_P5E.1_K5.1_C5.1_H5.1_[+2CCCT]_A5.1_F5.1_T5.1 (ssRNA) RNA: UUUGAUUAAUAUGAUAUCGUUCUUUCUUGCCCUUAUUAUUAUUCUUUCUCGAUAUCAUAUUAAUCUUU
6. UCUCUUCUUCUGUAUAUAUAUCUCUU (ssRNA) [Ie_S1_P3E.2_K3.1_C3.2_H3.1_[+1CT]_A3.1_F3.1_T3.2]

Solution:
1: 6.94; 2: 9.33; 3: 6.65; 4: 6.33; 5: 5.93; 6: 8.32

Could I get pKd for every one of these entries?
1. Ib_S2_P5E.1_K5.1_C5.1_H5.1_A5.1_[T5C]_[A7T]_F5.1_T5.1 (ssRNA) RNA: UUUGAUUAAUAUGAUAUCGUUCUUUCUUGUACUUUUAUUCUUUCUCGAUAUCAUAUUAAUCUUU
2. Ie_S4_P5E.1_K5.1_C5.1_H5.1_[+1TC]_A5.1_F5.1_T5.1 (ssRNA) RNA: UUUGACAACUGAUCGUUCUUUCUUUCGUAUUAUUAUUCUUUCUCGAUCAGUUGUCUUU
3. UCUCUUUGUAGUUUUCUCUU (ssRNA) [Ic_S1_P3E.1_K3.1_C3.1_H3.1_A3.1_[T5G]_[A6T]_F3.1_[A8T]_T3.1]

Solution:
1. 8.87
2. 6.54
3. 6.40
